- assayed_target: G-CSF receptor (Mus musculus, UniProt P40223)
- Construct: NSF60 cells express endogenous G-CSF receptors; endogenous in cells; host or cells: NFS60 cells
- assay_remarks: Luciferase assay in NFS60 cells (G-CSF mimetic potency)
- Assay type: cell-based
- reported_conditions: concentration range of 1 to 32 uM
assay_metric: activation, % of control, in the luciferase assay

compound	assayed_target	recorded_result
Ic1ccc2nc(N=C3NC4(c5ccccn5)NC(=Nc5nc6ccc(I)cc6[nH]5)NC4(c4ccccn4)N3)[nH]c2c1.O=C(O)C(F)(F)F.O=C(O)C(F)(F)F (stereo not drawn) [Example 32a]	G-CSF receptor (Mus musculus, UniProt P40223)	≤ 150 % of control
c1ccc(C23NC(=Nc4nc5ccccc5[nH]4)NC2(c2ccccn2)NC(=Nc2nc4ccccc4[nH]2)N3)nc1 (stereo not drawn) [Example 1]	G-CSF receptor (Mus musculus, UniProt P40223)	above 150 % of control
Clc1ccccc1C12NC(=Nc3nc4ccccc4[nH]3)NC1(c1ccccc1)NC(=Nc1nc3ccccc3[nH]1)N2 (stereo not drawn) [Example 36]	G-CSF receptor (Mus musculus, UniProt P40223)	≤ 150 % of control
c1ccc(C23NC(=Nc4nc5ccccc5o4)NC2(c2ccccn2)NC(=Nc2nc4ccccc4o2)N3)nc1 (stereo not drawn) [Example 14]	G-CSF receptor (Mus musculus, UniProt P40223)	≤ 150 % of control
c1ccc(C23NC(=Nc4nc5ccccc5[nH]4)NC2(c2ccccc2)NC(=Nc2nc4ccccc4[nH]2)N3)cc1 (stereo not drawn) [Example 2]	G-CSF receptor (Mus musculus, UniProt P40223)	above 150 % of control
Fc1ccc2nc(N=C3NC4(c5ccccn5)NC(=Nc5nc6ccccc6[nH]5)NC4(c4ccccn4)N3)[nH]c2c1.O=C(O)C(F)(F)F.O=C(O)C(F)(F)F (stereo not drawn) [Example 19]	G-CSF receptor (Mus musculus, UniProt P40223)	≤ 150 % of control

* * *

- assayed_target: G-CSF receptor (Mus musculus, UniProt P40223)
- Construct: NSF60 cells express endogenous G-CSF receptors; endogenous in cells; host or cells: NFS60 cells
- Sequence (P40223 26-837): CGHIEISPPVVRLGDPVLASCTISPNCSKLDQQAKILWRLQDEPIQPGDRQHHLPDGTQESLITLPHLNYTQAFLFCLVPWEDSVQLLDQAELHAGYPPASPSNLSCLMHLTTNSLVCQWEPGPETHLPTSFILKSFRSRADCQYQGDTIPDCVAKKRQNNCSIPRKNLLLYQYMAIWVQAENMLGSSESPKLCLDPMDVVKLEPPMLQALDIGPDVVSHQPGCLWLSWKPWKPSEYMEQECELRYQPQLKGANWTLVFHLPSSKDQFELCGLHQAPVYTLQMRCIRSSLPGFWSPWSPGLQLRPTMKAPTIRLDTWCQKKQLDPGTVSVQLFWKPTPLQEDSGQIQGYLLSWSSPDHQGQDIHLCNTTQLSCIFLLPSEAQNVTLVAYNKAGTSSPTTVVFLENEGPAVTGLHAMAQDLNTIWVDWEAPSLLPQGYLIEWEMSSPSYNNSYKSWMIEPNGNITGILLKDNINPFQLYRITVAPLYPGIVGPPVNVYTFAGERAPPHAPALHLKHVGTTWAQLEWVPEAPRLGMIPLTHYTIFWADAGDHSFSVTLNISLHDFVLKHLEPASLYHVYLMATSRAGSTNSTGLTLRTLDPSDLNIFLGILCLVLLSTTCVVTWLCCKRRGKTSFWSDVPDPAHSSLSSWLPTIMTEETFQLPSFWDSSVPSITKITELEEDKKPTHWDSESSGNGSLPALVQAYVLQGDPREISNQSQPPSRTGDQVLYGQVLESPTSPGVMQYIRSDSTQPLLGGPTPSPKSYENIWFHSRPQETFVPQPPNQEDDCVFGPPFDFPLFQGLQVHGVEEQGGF
- assay_remarks: Luciferase assay in NFS60 cells (G-CSF mimetic potency)
- Type: cell-based
- reported_conditions: concentration range of 1 to 32 uM
Counter-ions that a name gives are not always drawn.
assay_metric: activation, % of control, in the luciferase assay

compound	recorded_result
c1coc(C23NC(=Nc4nc5ccccc5[nH]4)NC2(c2ccco2)NC(=Nc2nc4ccccc4[nH]2)N3)c1 (stereo not drawn)	≤ 150 % of control
Fc1ccc2nc(N=C3NC4(c5ccccn5)NC(=Nc5nc6ccc(F)cc6[nH]5)NC4(c4ccccn4)N3)[nH]c2c1 (stereo not drawn) [Example 20, bis(trifluoroacetate) salt]	above 150 % of control
Brc1ccc(C23NC(=Nc4nc5ccccc5[nH]4)NC2(c2ccc(Br)cc2)NC(=Nc2nc4ccccc4[nH]2)N3)cc1 (stereo not drawn)	≤ 150 % of control
Cc1csc(N=C2NC3(c4ccccn4)NC(=Nc4nc(C)cs4)NC3(c3ccccn3)N2)n1 (stereo not drawn)	above 150 % of control
Cc1ccc2nc(N=C3NC4(c5ccccc5)NC(=Nc5nc6ccccc6[nH]5)NC4(c4ccccn4)N3)[nH]c2c1.O=C(O)C(F)(F)F.O=C(O)C(F)(F)F (stereo not drawn)	above 150 % of control
c1ccc(C23NC(=Nc4nc5ccccc5[nH]4)NC2(c2ccccn2)NC(=Nc2nc4ccccc4s2)N3)nc1 (stereo not drawn)	above 150 % of control
Cn1c(N=C2NC3(c4ccc(Br)cc4)NC(=Nc4nc5ccccc5n4C)NC3(c3ccc(Br)cc3)N2)nc2ccccc21 (stereo not drawn)	≤ 150 % of control
Cc1cc2nc(N=C3NC4(c5ccccn5)NC(=Nc5nc6cc(C)c(C)cc6[nH]5)NC4(c4ccccn4)N3)[nH]c2cc1C (stereo not drawn) [Example 25, bis(trifluoroacetate) salt]	above 150 % of control
O=C(O)c1ccc2nc(N=C3NC4(c5ccccn5)NC(=Nc5nc6ccccc6[nH]5)NC4(c4ccccn4)N3)[nH]c2c1 (stereo not drawn) [Example 31, bis(trifluoroacetate) salt]	≤ 150 % of control
FC(F)(F)c1ccc(C23NC(=Nc4nc5ccccc5[nH]4)NC2(c2ccc(C(F)(F)F)cc2)NC(=Nc2nc4ccccc4[nH]2)N3)cc1 (stereo not drawn)	above 150 % of control
Cc1ccc(C23NC(=Nc4nc5ccccc5n4C)NC2(c2ccc(C)cc2)NC(=Nc2nc4ccccc4n2C)N3)cc1 (stereo not drawn)	above 150 % of control
Clc1cccc(C23NC(=Nc4nc5ccccc5[nH]4)NC2(c2ccccc2)NC(=Nc2nc4ccccc4[nH]2)N3)c1 (stereo not drawn)	above 150 % of control
Cc1cc2nc(N=C3NC4(c5ccccn5)NC(=Nc5nc6ccccc6[nH]5)NC4(c4ccccn4)N3)[nH]c2cc1C (stereo not drawn) [Example 26, bis(trifluoroacetate) salt]	above 150 % of control
Ic1ccc2nc(N=C3NC4(c5ccccn5)NC(=Nc5nc6ccccc6[nH]5)NC4(c4ccccn4)N3)[nH]c2c1 (stereo not drawn) [Example 32b, bis(trifluoroacetate) salt]	above 150 % of control
Cn1c(N=C2NC3(c4ccccc4)NC(=Nc4nc5ccccc5n4C)NC3(c3ccccc3)N2)nc2ccccc21 (stereo not drawn)	≤ 150 % of control
